Parameter: pKd. Scope: all listed entries.
experimental.target: DLG2_3, Q15700
measurement.description: holdup assay
Set-up: key: below the threshold = too weak to quantify, mostly under pKd 3.1 to 4
assay.context: plain residues with an end cap or a label only (N-terminal biotin on a linker: ado-ado)
observable: pKd

| binder | observed.value |
| --- | --- |
| EEPEERHTEL [CES2, O00748] | 3.78 |
| FVHPILQSAV [PRKCA, P17252] | 3.74 |
